FYI, the data here is from patent US9260439B2.

target: truncated PI3Kα (p110α/iSH2 p85α) (Homo sapiens (Human), UniProt P42336); experiment: PI3KA_Act fluorescence polarization kinase assay (Ki); format: biochemical; conditions: 1 mM ATP
Sequence (P42336 whole entry, the tested form may be a part): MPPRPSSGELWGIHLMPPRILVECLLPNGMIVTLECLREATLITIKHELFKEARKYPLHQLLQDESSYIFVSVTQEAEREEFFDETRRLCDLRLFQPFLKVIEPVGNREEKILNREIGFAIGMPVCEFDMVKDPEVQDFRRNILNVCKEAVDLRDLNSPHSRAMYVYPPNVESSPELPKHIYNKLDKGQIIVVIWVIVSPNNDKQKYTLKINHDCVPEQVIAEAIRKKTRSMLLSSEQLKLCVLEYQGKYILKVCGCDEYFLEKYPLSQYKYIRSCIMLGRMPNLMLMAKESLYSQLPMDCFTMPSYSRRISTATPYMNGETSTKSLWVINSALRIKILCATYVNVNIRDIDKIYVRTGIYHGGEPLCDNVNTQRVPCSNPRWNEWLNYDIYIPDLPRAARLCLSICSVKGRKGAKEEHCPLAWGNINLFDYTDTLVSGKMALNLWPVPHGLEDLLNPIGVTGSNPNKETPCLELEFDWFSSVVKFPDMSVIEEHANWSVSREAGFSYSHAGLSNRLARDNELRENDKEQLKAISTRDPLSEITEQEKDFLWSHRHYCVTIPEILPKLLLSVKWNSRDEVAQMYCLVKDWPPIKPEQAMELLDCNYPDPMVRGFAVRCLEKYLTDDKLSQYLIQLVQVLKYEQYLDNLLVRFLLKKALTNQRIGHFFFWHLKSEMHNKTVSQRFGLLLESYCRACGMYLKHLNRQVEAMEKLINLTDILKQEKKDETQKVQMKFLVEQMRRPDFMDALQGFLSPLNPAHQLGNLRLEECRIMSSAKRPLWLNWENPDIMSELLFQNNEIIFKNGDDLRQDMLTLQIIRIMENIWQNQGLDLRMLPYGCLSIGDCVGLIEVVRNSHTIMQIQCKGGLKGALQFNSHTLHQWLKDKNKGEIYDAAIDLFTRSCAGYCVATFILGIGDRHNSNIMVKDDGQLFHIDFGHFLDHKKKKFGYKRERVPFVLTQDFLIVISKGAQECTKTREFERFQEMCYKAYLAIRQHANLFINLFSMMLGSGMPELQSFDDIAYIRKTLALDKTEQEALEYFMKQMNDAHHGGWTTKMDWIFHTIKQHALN

structure.notation: CN(C)CC(=O)N1CC[C@@](C)(N2CCc3c(-c4cnc(N)nc4)nc(N4CCOCC4)nc32)C1
tested.target: truncated PI3Kα (p110α/iSH2 p85α) (Homo sapiens (Human), UniProt P42336)
PI3KA_Act Ki: 0.669 nM
//
structure.notation: C[C@H]1COCCN1c1nc(-c2cnc(N)nc2)c2c(n1)N(C1CN(C(=O)OC(C)(C)C)C1)CC2
tested.target: truncated PI3Kα (p110α/iSH2 p85α) (Homo sapiens (Human), UniProt P42336)
PI3KA_Act Ki: 0.471 nM
//
structure.notation: C[C@@]1(N2CCc3c(-c4cnc(N)nc4)nc(N4CCOCC4)nc32)CCN(S(C)(=O)=O)C1
tested.target: truncated PI3Kα (p110α/iSH2 p85α) (Homo sapiens (Human), UniProt P42336)
PI3KA_Act Ki: 0.044 nM
//
structure.notation: CNS(=O)(=O)N1C[C@@H](N2CCc3c(-c4cnc(N)nc4)nc(N4CCOC[C@@H]4C)nc32)[C@H](OC)C1
tested.target: truncated PI3Kα (p110α/iSH2 p85α) (Homo sapiens (Human), UniProt P42336)
PI3KA_Act Ki: 0.179 nM
//
structure.notation: Nc1ncc(-c2nc(N3CCOCC3)nc3c2CCN3C23CC(C2)C3)cn1
tested.target: truncated PI3Kα (p110α/iSH2 p85α) (Homo sapiens (Human), UniProt P42336)
PI3KA_Act Ki: 0.200 nM
//
structure.notation: COCCC(=O)N1CC(N2CCc3c(-c4cnc(N)nc4)nc(N4CCOCC4)nc32)C1
tested.target: truncated PI3Kα (p110α/iSH2 p85α) (Homo sapiens (Human), UniProt P42336)
PI3KA_Act Ki: 1.291 nM
//
structure.notation: Nc1ncc(-c2nc(N3CCOC[C@@H]3CO)nc3c2CCN3C2CC(F)(F)C2)cn1
tested.target: truncated PI3Kα (p110α/iSH2 p85α) (Homo sapiens (Human), UniProt P42336)
PI3KA_Act Ki: 2.745 nM
//
structure.notation: CC[C@@]1(N2CCc3c(-c4cnc(N)nc4)nc(N4CCOCC4)nc32)CCN(C(=O)C(C)(C)N)C1.Cl
tested.target: truncated PI3Kα (p110α/iSH2 p85α) (Homo sapiens (Human), UniProt P42336)
PI3KA_Act Ki: 0.368 nM
//
structure.notation: CCS(=O)(=O)N1CC(N2CCc3c(-c4cnc(N)nc4)nc(N4CCOC[C@@H]4C)nc32)C1
tested.target: truncated PI3Kα (p110α/iSH2 p85α) (Homo sapiens (Human), UniProt P42336)
PI3KA_Act Ki: 0.105 nM
